All values here come from the RNAGym collection of RNA variant scans (doi:10.1126/science.aae0568).

B1: tRNA (parent)
chain: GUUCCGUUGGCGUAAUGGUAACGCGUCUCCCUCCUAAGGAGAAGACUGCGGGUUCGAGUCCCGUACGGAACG

- Variants of: B1
- protocol_text: yeast fitness relative to wild type (ratio to wild type); higher = fitter; tRNA-Arg(CCU), competitive growth, 37 C, YPD
This sample holds only a part of the variants without activity.
observation_type: yeast fitness

chain: GUUCCGUUGGCGUAAUGGUAACGCGUUUCCCUCCUAAGGAGAAGAAUGCGGGUUCGCGUCCCGUACGGAACG [C27U C46A A57C]
observation_type: yeast fitness
inequality_symbol: =
val: 0.726
//
chain: GUUCCGUUGGCGUAAUGGUAACGCGUCUCACUCCUAAGGAGAAGACUGCGGGUUGGAGUCCCGUAUGGAACG [C30A C55G C66U]
observation_type: yeast fitness
inequality_symbol: ≤
val: 0.5
//
chain: GUUCCGUUGGCGUAAUGGUAACGCGUCUCCCUCCUAAGGAGAAGACUGCGGGUUCGAGCCCCGUACGAAACG [U59C G68A]
observation_type: yeast fitness
inequality_symbol: =
val: 0.817
//
chain: GUCCCGUAGGCGUACUGGUAACGCGUCUCCCUCCUAAGGAGAAGACUGCGGGUUCGAGUCCCGUACGGAACG [U3C U8A A15C]
observation_type: yeast fitness
inequality_symbol: ≤
val: 0.5
//
chain: GUUCCGUUGGCGUAAUGGUAACGCGUCUCCCUAAUAAGGAGAAGACUGCGGGUUCAAGUCCCGUACGGAACG [C33A C34A G56A]
observation_type: yeast fitness
inequality_symbol: ≤
val: 0.5
//
chain: GUUCCGUUGGCGUAAUGGUAACGCGUCUCCCUCCUACGGAGAAGACUGCGGGUUGGAGUCCCAUACGGAACG [A37C C55G G63A]
observation_type: yeast fitness
inequality_symbol: ≤
val: 0.5
//
chain: GUUCCGUUGGCGUAAUGGUAACGCGUCUCCCUCCUAAGGAGAAGACUGCGGAUUCGAGUCCCGUACGAAACG [G52A G68A]
observation_type: yeast fitness
inequality_symbol: =
val: 0.678
//
chain: GUUCCGUUGGCGUAAAGAUAACGCGUCUCCUUCCUAAGGAGAAGACUGCGGGUUCGAGUCCCGUACGGAACG [U16A G18A C31U]
observation_type: yeast fitness
inequality_symbol: ≤
val: 0.5
//
chain: GUUCCGUUGGCGUAAUGGUAACGCGUCUUCCUCCUAAGGAGAAGACUGCGGGUUCGAGUCCCGUACUGAACG [C29U G67U]
observation_type: yeast fitness
inequality_symbol: =
val: 0.91
//
chain: GUUCAGUUGGCAUAAUGAUAACGCGUCUCCCUCCUAAGGAGAAGACUGCGGGUUCGAGUCCCGUUCGGAACG [C5A G12A G18A A65U]
observation_type: yeast fitness
inequality_symbol: ≤
val: 0.5
//
chain: GUUCCAUUGGCGUAAUGGUAACGCGUCUCCCUCCUAAGGAGAAGACUGCGGGUUCGAGUCCUGUAAGGAACG [G6A C62U C66A]
observation_type: yeast fitness
inequality_symbol: =
val: 0.548
//
chain: GUUCCGUCGGCGUAAUGGUAACGCGUCUCCCUCCUAAGGAGAAGCCUGCGGGUUCGAGUCCCGUACGGAACG [U8C A45C]
observation_type: yeast fitness
inequality_symbol: =
val: 0.802
//
chain: GUUCCGUUGGCGUAAUGGGAACGCGUCUCCCUCCUAAGGAGAAGACUGCGGGUUCGAGUCGCGUACGGAACG [U19G C61G]
observation_type: yeast fitness
inequality_symbol: =
val: 0.575
//
chain: GUUCCGUUGGCGUAAUGGUAACGCGUCUGCCUUCUAAGGAGAAGACUGCGGGUUCGACUGCAGUACGGAACG [C29G C33U G58C C60G C62A]
observation_type: yeast fitness
inequality_symbol: ≤
val: 0.5
//
chain: GUUCCGUUGGCGUAAUGGUCUCGCGUCUCUAUCCUAAGGAGAAGACUGCGGGUUCGAGUCCCAUACGGAACG [A20C A21U C30U C31A G63A]
observation_type: yeast fitness
inequality_symbol: =
val: 0.628
//
chain: GUUCCGUUGGCGUAAUGGUAACGCGACUCCCUCCUAAGGAGAAGACUGCUGGUUCGAGUCCCGUACGGAACG [U26A G50U]
observation_type: yeast fitness
inequality_symbol: =
val: 0.805
//
chain: GUUCUGUUGGCGUAAUGGUAGCGCGUCUCCCUCCUAAGGAGUAGACUGCGGGUUCGAGUCCCGUACGGAACG [C5U A21G A42U]
observation_type: yeast fitness
inequality_symbol: =
val: 0.908
//
chain: GUUCCGUUGGCGUAAUGGUAACGCGUUACCCACUUCAGGAGAAGACCGCGGGUUAGAGUCCCGUACGGAACG [C27U U28A U32A C34U A36C U47C C55A]
observation_type: yeast fitness
inequality_symbol: ≤
val: 0.5
//
chain: GUUGCGUCGGCGUAAUGGUAACGCGUCUCCCUCCUAUGGAGCAGACUGCGGGUUCGAGUCCCGUAGGGAACG [C4G U8C A37U A42C C66G]
observation_type: yeast fitness
inequality_symbol: ≤
val: 0.5
//
chain: GUACCGUUGGCGUGAUGGUAACGCGUCUCCCUCCUAAGGAGAAGACUGCGGGUUCGAAUCCCGUACGGAACG [U3A A14G G58A]
observation_type: yeast fitness
inequality_symbol: =
val: 0.883
//
chain: GUUCCGUUGGCGUAAUGCUAACGCGUCUUCCUCUUGAGGAGAAGACUGCGGGUUCGACUCCCGUACGGAACG [G18C C29U C34U A36G G58C]
observation_type: yeast fitness
inequality_symbol: ≤
val: 0.5
//
chain: GUUCCGUUGGGGUAAUGGUAACGCGUCUCCCUCCUAAGGAGAAGACUGGGGGUUCGAGUCCCGUAAUGAACG [C11G C49G C66A G67U]
observation_type: yeast fitness
inequality_symbol: ≤
val: 0.5
//
chain: GUUCCGUUGGCGUAAUGGUAACGCGUGUCCCUCCUAAGGAGAAGACUGCGGAUUCGAGUCCCGUACGGAACG [C27G G52A]
observation_type: yeast fitness
inequality_symbol: =
val: 0.941
//
chain: GUUCCGUUGGCGUAUUGGUAACGUGUCUCCCUCCUAAGGAGAAAACUGCGGGUUCGAGUCCCGUACGGAACG [A15U C24U G44A]
observation_type: yeast fitness
inequality_symbol: =
val: 0.503
//
chain: GUUACGAAGGCGUAAUGGUAACGCGUCUCCCUCCUAAGGAGAAGACUGCGGGUUCGAGUACCGUACGGAACG [C4A U7A U8A C60A]
observation_type: yeast fitness
inequality_symbol: ≤
val: 0.5
//
chain: GAUCCGUUGGCGUAAUGGUAACGCGUCUCCCUCCUAAGGAGAAGACUGCGGGUUCGAGUCCCGUACGCAACG [U2A G68C]
observation_type: yeast fitness
inequality_symbol: =
val: 0.671
//
chain: GUUCCGUUGGCGUAAUGGUAACGCGUCUCCCUCCUAAGGAGACGACUGCGGGUUCGAGUCCCGUACCGAACG [A43C G67C]
observation_type: yeast fitness
inequality_symbol: =
val: 0.867
//
chain: GUUCCGUUGGCAUAAUGGUAACGCGUCUCCCUCCUAAGGACAAGCCUGCGGGUUCGAGUCCCGUACGAAACG [G12A G41C A45C G68A]
observation_type: yeast fitness
inequality_symbol: ≤
val: 0.5
//
chain: GUUCCAUUGGCGUAAUGGUAACGCGUCUCCCUCUUAAGGAGAAGACUGCGGGUUCGAGUCCCGUACGGAACG [G6A C34U]
observation_type: yeast fitness
inequality_symbol: =
val: 0.65
//
chain: GCUCCGUUGGCGUAAUGGUAACGCGUCUCCCUCCUAAGGAGAAGACUGCGGGUUCGGGUCCCGUACGGAACG [U2C A57G]
observation_type: yeast fitness
inequality_symbol: =
val: 0.891
//
chain: GUUCCGAUGGCGUAAUGGUAACGCGUCUCCCUCCUAAGGAGAAGACUGCGGCUUCAAGUCCCGUACGGAACG [U7A G52C G56A]
observation_type: yeast fitness
inequality_symbol: =
val: 0.554
//
chain: GUUCCGCUGGCGUAAUGGUAACGCGUCUCCCUCCUAAGGAUAAGACUGCGGGUUCGACUCCCGUACGGAACG [U7C G41U G58C]
observation_type: yeast fitness
inequality_symbol: ≤
val: 0.5
//
chain: GUUCCGUUGGCGUAAUGGUAACGCGUCUCCCUGCUAAGGAGAAGCCUGCGGGUUCGAGUCGCGUACGGAACG [C33G A45C C61G]
observation_type: yeast fitness
inequality_symbol: =
val: 0.567
//
chain: GUUCCGUUGGCGUAAUGGUAACGCGUCUCCCUCCUAAGGAGAAGACUGCGGGUUCGAGUCCCGUACCGAACG [G67C]
observation_type: yeast fitness
inequality_symbol: =
val: 0.986
//
chain: GUUCCGUUGGCGUAAUGGUAACGCGCCUCCCUCCUAAGGAGACGACUGCGGGUUCGAGUCCCGUACGGAACG [U26C A43C]
observation_type: yeast fitness
inequality_symbol: =
val: 0.952
//
chain: GUUCCGUUGGCGUAGUGGUAACGCGGCUCUCUCCUAAGGAGAAGACUGCGGAUUCGAGUCCCGUACGGAACG [A15G U26G C30U G52A]
observation_type: yeast fitness
inequality_symbol: ≤
val: 0.5
//
chain: GUUCCGUUGGCGUAAUGGUAACGCGUCUCCCUCCUGAGGAGAAGACUGCGGGUUGGAGUCCCGUACGGAACG [A36G C55G]
observation_type: yeast fitness
inequality_symbol: =
val: 0.623
//
chain: GUUCAGUUGGCGUAAUGGUUACGCGUCUACCUCCUAAGGAGAAGACUGCGGGUUCGAGUCCCGUACGGAACG [C5A A20U C29A]
observation_type: yeast fitness
inequality_symbol: ≤
val: 0.5
//
chain: GUUCCGUUGGCGUAAUGGUAACGCUUCUCCCUCCUUAGGAGAAGACUGCGGGUUCCAGUCCCGUCCAGAACG [G25U A36U G56C A65C G67A]
observation_type: yeast fitness
inequality_symbol: ≤
val: 0.5
//
chain: GUUCCGUUGGCGUAAUGGCAACGCGUCUCCCUCCUAAGGAGAAGACUGCGGGUUCGAGUCCCGUGCGGAACG [U19C A65G]
observation_type: yeast fitness
inequality_symbol: =
val: 1
//
chain: GUUCCGUUGCCGUAAUGGUAACGCGUCUCCCUCCUAAGGAAAAGACUGCGGGUUCGAGUCCUGUACGGAACG [G10C G41A C62U]
observation_type: yeast fitness
inequality_symbol: ≤
val: 0.5
//
chain: GUUCCGUUGGCGUAAUGGUAACGCGUCUCCCUCCUAAGGAGAAGACUGCGAGUUCGAGUCAGGUACGGAACG [G51A C61A C62G]
observation_type: yeast fitness
inequality_symbol: ≤
val: 0.5
//
chain: GUUCCGUUGACGUAAUGGUAACGCGUCUCCCUCCUAAGGAGAAGACUGCGGGUUCGAGUGCCGUACGGAACG [G10A C60G]
observation_type: yeast fitness
inequality_symbol: =
val: 0.531
//
chain: GUUCCGUUGGCGUAAAGGUAACGCGUCCCCCUCCUAAGGAGAAGACUGCGGGUUCGAGUCCCGUACGGACCG [U16A U28C A70C]
observation_type: yeast fitness
inequality_symbol: =
val: 0.569
//
chain: GUUCCGUUGGCGUAAUGGUAACGCGUCUCCCUCCUAAGGAGAAGAGUGCGGGUUUGAGUCCCGUACGGAACG [C46G C55U]
observation_type: yeast fitness
inequality_symbol: =
val: 0.769
//
chain: GUUCCGUUGGCGUAAUGGUAACGCGUCUUCCUCCUUAGGAGAAGACUGUGGGUUCGAGUCCCGUACGGAACG [C29U A36U C49U]
observation_type: yeast fitness
inequality_symbol: ≤
val: 0.5
